The variants listed here are annotated with their yeast fitness.
B1: tRNA (parent)
chain: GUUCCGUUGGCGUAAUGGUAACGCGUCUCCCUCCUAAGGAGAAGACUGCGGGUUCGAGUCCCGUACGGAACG

- Variants of: B1
- assay.protocol: yeast fitness relative to wild type (ratio to wild type); higher = fitter; tRNA-Arg(CCU), competitive growth, 37 C, YPD
Variants at the floor of the assay were thinned out.
Please state the value as a number alone, without comment.

U2G A70U | 0.917
A14U A15U C34G A42C | 0.537
A40U A45C | 0.871

Query string: Sample A36U U53A — what was its yeast fitness?
Result string: 0.728

Query string: Entry under review: U8C A69U . Reported yeast fitness?
Result string: 0.933

Query string: Given the variant A20C G23A C55G C60A , what is its reported yeast fitness?
Result string: 0.561

Query string: Returns the measured yeast fitness for the input variant. Input: U3C G10C A20C G56C
Result string: 0.577

Query string: # input variant: G23C C33G C46A C66A ; wanted: its yeast fitness
Result string: 0.596

Query string: Find the recorded yeast fitness belonging to G48A C55U G63A and report it.
Result string: 0.706

Query string: Look up yeast fitness for this variant: C11U A36G G44A C46U
Result string: 0.993

Query string: For the variant shown here, G17C G25C , give the reported yeast fitness.
Result string: 0.658

Query string: Recorded yeast fitness for C33U C34A U53G U54A , please?
Result string: 0.588

Query string: Suppose we examine the variant G67C G68A ; what yeast fitness value has been reported?
Result string: 0.874

Query string: Using the record for A20U G41C G51C C62G , report its yeast fitness.
Result string: 0.735

Query string: Could you share which yeast fitness value was measured for C61G A65G C66U A69G ?
Result string: 0.646

Query string: # yeast fitness lookup, item G9A U53A
Result string: 0.701
